test system: TRPA1V1; assay: Intracellular calcium (Fluo-4, FLIPR) activation of TRPA1V1 cells (co-expressing TRPA1 and TRPV1) by GRAS compounds; type: cell-based, human; settings: Table 1(a); 1 mM; relative to AITC 30 μM; average of three plates;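 also: HEK293 cells co-expressing TRPA1 and TRPV1, fluorescence read at 488/514 nm after baseline subtraction, recorded every 2 s over 10 min, ionomycin 10 µM and buffer as controls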
Short version: A1V1 activation, % of agonist value at least 80% is 1.0, less is 0.0.

**Query** Record C=CCSSSCC=C [Allyl-trisulfide] ; criterion: A1V1 activation, % of agonist value no lower than 80%. Met?
**Result** 1.0

**Query** Record CCCCC/C=C\C/C=C\CCCCCCCC(=O)O ; criterion: A1V1 activation, % of agonist value no lower than 80%. Met?
**Result** 1.0

**Query** Record CC(C)=CCCC(C)=CCCC(C)=CC=O ; criterion: A1V1 activation, % of agonist value no lower than 80%. Met?
**Result** 1.0

**Query** Record CCCCOC(=O)c1ccc(O)cc1 [Butylparaben, Butyl 4-hydroxybenzoate] ; criterion: A1V1 activation, % of agonist value no lower than 80%. Met?
**Result** 1.0

**Query** Record CC/C=C\CCCCO [5-Octen-1-ol, (Z)] ; criterion: A1V1 activation, % of agonist value no lower than 80%. Met?
**Result** 0.0

**Query** Record CC(C=O)Cc1ccc2c(c1)OCO2 (centres unmarked) ; criterion: A1V1 activation, % of agonist value no lower than 80%. Met?
**Result** 0.0

**Query** Record CC(=O)C(=O)c1ccccc1 ; criterion: A1V1 activation, % of agonist value no lower than 80%. Met?
**Result** 1.0

**Query** Record CCCCCC(=Cc1ccccc1)CO ; criterion: A1V1 activation, % of agonist value no lower than 80%. Met?
**Result** 0.0

**Query** Record CCC(S)C(C)=O (centres unmarked) ; criterion: A1V1 activation, % of agonist value no lower than 80%. Met?
**Result** 0.0

**Query** Record C=CCc1cccc(OC)c1O ; criterion: A1V1 activation, % of agonist value no lower than 80%. Met?
**Result** 1.0

----------
So I've got a bunch of compounds here, and I need their activation at 1000 µM values.
biological target: human TRPV1 (Homo sapiens, UniProt Q8NER1, M315I/T336M); construct: expressed in transfected cells; pcDNA3 control cells; assay: Intracellular calcium (Fluo-4, FLIPR) activation of TRPV1 cells by GRAS compounds; format: cell-based; conditions: Table 1(a); 1 mM; relative to capsaicin 350 nM; average of three plates; read-out: V1 activation, % of agonist value;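 also: TRPV1-expressing cells, FLIPR fluorescence at 488/514 nm with baseline subtracted, sampled every 2 s for 10 min after adding compound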
Sequence (Q8NER1 whole entry M315I/T336M): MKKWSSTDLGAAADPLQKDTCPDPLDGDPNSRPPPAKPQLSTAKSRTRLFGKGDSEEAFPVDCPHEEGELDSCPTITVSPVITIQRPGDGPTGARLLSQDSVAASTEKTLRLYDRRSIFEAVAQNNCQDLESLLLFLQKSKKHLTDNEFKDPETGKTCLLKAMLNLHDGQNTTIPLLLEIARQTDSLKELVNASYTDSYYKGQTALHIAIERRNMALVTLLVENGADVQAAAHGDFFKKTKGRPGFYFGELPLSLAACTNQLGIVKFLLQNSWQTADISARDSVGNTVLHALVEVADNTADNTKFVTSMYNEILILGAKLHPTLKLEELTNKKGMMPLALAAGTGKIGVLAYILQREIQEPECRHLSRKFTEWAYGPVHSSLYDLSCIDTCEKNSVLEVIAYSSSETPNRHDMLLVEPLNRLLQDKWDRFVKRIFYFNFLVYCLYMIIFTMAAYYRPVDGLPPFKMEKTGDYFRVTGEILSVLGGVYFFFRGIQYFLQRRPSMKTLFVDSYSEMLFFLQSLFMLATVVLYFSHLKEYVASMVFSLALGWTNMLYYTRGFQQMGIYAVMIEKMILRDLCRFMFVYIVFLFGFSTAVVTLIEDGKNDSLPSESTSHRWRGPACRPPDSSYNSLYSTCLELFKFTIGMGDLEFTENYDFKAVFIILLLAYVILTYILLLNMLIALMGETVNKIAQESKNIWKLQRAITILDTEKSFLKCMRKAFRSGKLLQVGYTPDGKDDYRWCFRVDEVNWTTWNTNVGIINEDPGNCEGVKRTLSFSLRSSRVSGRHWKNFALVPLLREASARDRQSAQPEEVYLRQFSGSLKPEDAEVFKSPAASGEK
Lab book: enter the figure in %, no units written.

**Query** Lab note: record activation at 1000 µM of CCCCc1ccco1 tested on human TRPV1 (Homo sapiens, UniProt Q8NER1, M315I/T336M).
**Result** 20.2

**Query** Lab note: record activation at 1000 µM of CC/C=C\C/C=C\C/C=C\CCCCCCCC(=O)OC [Methyl linolenate] tested on human TRPV1 (Homo sapiens, UniProt Q8NER1, M315I/T336M).
**Result** 31

**Query** Lab note: record activation at 1000 µM of O=C(O)CC1CCCCC1 tested on human TRPV1 (Homo sapiens, UniProt Q8NER1, M315I/T336M).
**Result** 56.6

**Query** Lab note: record activation at 1000 µM of CCCSSc1ccoc1C [Propyl 2-methyl-3-furyl disulfide] tested on human TRPV1 (Homo sapiens, UniProt Q8NER1, M315I/T336M).
**Result** 25

**Query** Lab note: record activation at 1000 µM of O=C(O)C(=O)Cc1ccccc1 tested on human TRPV1 (Homo sapiens, UniProt Q8NER1, M315I/T336M).
**Result** 32.5

**Query** Lab note: record activation at 1000 µM of S=C=NCc1ccccc1 tested on human TRPV1 (Homo sapiens, UniProt Q8NER1, M315I/T336M).
**Result** 59.2

**Query** Lab note: record activation at 1000 µM of Cc1ccc(C)c(O)c1C tested on human TRPV1 (Homo sapiens, UniProt Q8NER1, M315I/T336M).
**Result** 74.8

**Query** Lab note: record activation at 1000 µM of CCOC(=O)C(O)Cc1ccccc1 (stereo not shown) [Ethyl 2-hydroxy-3-phenylpropanoate] tested on human TRPV1 (Homo sapiens, UniProt Q8NER1, M315I/T336M).
**Result** 29.2

**Query** Lab note: record activation at 1000 µM of CC1=C(O)C(=O)CO1 [4-Hydroxy-5-methyl-3-furanone] tested on human TRPV1 (Homo sapiens, UniProt Q8NER1, M315I/T336M).
**Result** 40.5

**Query** Lab note: record activation at 1000 µM of CCCCC/C=C\C/C=C\CCCCCCCC(=O)O tested on human TRPV1 (Homo sapiens, UniProt Q8NER1, M315I/T336M).
**Result** 24.9

**Query** Lab note: record activation at 1000 µM of C=Cc1ccc(O)c(OC)c1 tested on human TRPV1 (Homo sapiens, UniProt Q8NER1, M315I/T336M).
**Result** 20.7

**Query** Lab note: record activation at 1000 µM of O=Cc1cc2ccccc2o1 tested on human TRPV1 (Homo sapiens, UniProt Q8NER1, M315I/T336M).
**Result** 57.6

**Query** Lab note: record activation at 1000 µM of CCC(S)C(C)=O (stereo not shown) tested on human TRPV1 (Homo sapiens, UniProt Q8NER1, M315I/T336M).
**Result** 59.2

**Query** Lab note: record activation at 1000 µM of CC(=O)C(=O)c1ccccc1 tested on human TRPV1 (Homo sapiens, UniProt Q8NER1, M315I/T336M).
**Result** 66.6

**Query** Lab note: record activation at 1000 µM of C=C(C)[C@@H]1CC=C(CO)CC1 tested on human TRPV1 (Homo sapiens, UniProt Q8NER1, M315I/T336M).
**Result** 20.4

**Query** Lab note: record activation at 1000 µM of CCCC(=O)OC/C=C(\C)CCC=C(C)C [Geranyl butyrate] tested on human TRPV1 (Homo sapiens, UniProt Q8NER1, M315I/T336M).
**Result** 28.9

**Query** Lab note: record activation at 1000 µM of CCCCCC(=Cc1ccccc1)CO tested on human TRPV1 (Homo sapiens, UniProt Q8NER1, M315I/T336M).
**Result** 21.1

**Query** Lab note: record activation at 1000 µM of CCCCC=CC(C)=O tested on human TRPV1 (Homo sapiens, UniProt Q8NER1, M315I/T336M).
**Result** 30

**Query** Lab note: record activation at 1000 µM of C=CCSSSCC=C [Allyl-trisulfide] tested on human TRPV1 (Homo sapiens, UniProt Q8NER1, M315I/T336M).
**Result** 32.9

**Query** Lab note: record activation at 1000 µM of C=CC(=O)CCCCC tested on human TRPV1 (Homo sapiens, UniProt Q8NER1, M315I/T336M).
**Result** 63.2

**Query** Lab note: record activation at 1000 µM of CCOCc1ccc(O)c(OC)c1 tested on human TRPV1 (Homo sapiens, UniProt Q8NER1, M315I/T336M).
**Result** 67.6

**Query** Lab note: record activation at 1000 µM of c1ccc(CCCc2ccccn2)cc1 tested on human TRPV1 (Homo sapiens, UniProt Q8NER1, M315I/T336M).
**Result** 21.5
